Measurement Target: T1, human IGF2^1-67 (mature insulin-like growth factor 2) (human, UniProt P01344 25-91, biotinylated (site not stated) where immobilised on the chip (Tables 1-4))
T1 construct: mature; also called mature IGF2; biotinylated IGF2
T1 sequence (P01344 25-91): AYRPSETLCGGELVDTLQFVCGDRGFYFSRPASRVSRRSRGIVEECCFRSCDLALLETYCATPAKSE
Assay Comment: SPR kinetic, biotin-IGF2 on chip, pH 7.4
Consider the cut-off 2 nM. If the recorded Kd is strictly smaller, the label is t; if not, the label is f.

{"Binder": "domain 11^AB5 P1597H (receptor, See m5) MKSNEHDDCQVTNPSTGHLFDLSSLSGRAGFTAAYAKGWGVYMSICGENENCPPGVGACFGQTRISVGKANKRLRYVDQVLQLVYKDGSHCPSKSGLSYKSVISFVCRPEAGPTNRPMLISLDKQTCTLFFSWHTPLACEQATECSV", "Label Class": "t"}
{"Binder": "domain 11^AB5 P1597Q (receptor, See m5) MKSNEHDDCQVTNPSTGHLFDLSSLSGRAGFTAAYAKGWGVYMSICGENENCPPGVGACFGQTRISVGKANKRLRYVDQVLQLVYKDGSQCPSKSGLSYKSVISFVCRPEAGPTNRPMLISLDKQTCTLFFSWHTPLACEQATECSV", "Label Class": "f"}
{"Binder": "domain 11^AB5 Q1569R P1597K (receptor, See m5) MKSNEHDDCQVTNPSTGHLFDLSSLSGRAGFTAAYAKGWGVYMSICGENENCPPGVGACFGRTRISVGKANKRLRYVDQVLQLVYKDGSKCPSKSGLSYKSVISFVCRPEAGPTNRPMLISLDKQTCTLFFSWHTPLACEQATECSV", "Label Class": "t"}
{"Binder": "domain 11^AB5 P1597K (receptor, See m5) MKSNEHDDCQVTNPSTGHLFDLSSLSGRAGFTAAYAKGWGVYMSICGENENCPPGVGACFGQTRISVGKANKRLRYVDQVLQLVYKDGSKCPSKSGLSYKSVISFVCRPEAGPTNRPMLISLDKQTCTLFFSWHTPLACEQATECSV", "Label Class": "t"}
{"Binder": "domain 11^AB3 Q1569R P1597K S1602H (receptor, See m5) MKSNEHDDCQVTNPSTGHLFDLSSLSGRAGFTAAYSKSGVVYMSICGENENCPPGVGACFGRTRISVGKANKRLRYVDQVLQLVYKDGSKCPSKHGLSYKSVISFVCRPEAGPTNRPMLISLDKQTCTLFFSWHTPLACEQATECSV", "Label Class": "t"}
{"Binder": "domain 11^AB5 P1597K S1602H (receptor, See m5) MKSNEHDDCQVTNPSTGHLFDLSSLSGRAGFTAAYAKGWGVYMSICGENENCPPGVGACFGQTRISVGKANKRLRYVDQVLQLVYKDGSKCPSKHGLSYKSVISFVCRPEAGPTNRPMLISLDKQTCTLFFSWHTPLACEQATECSV", "Label Class": "f"}
{"Binder": "domain 11^AB3 Q1569R P1597K (receptor, See m5) MKSNEHDDCQVTNPSTGHLFDLSSLSGRAGFTAAYSKSGVVYMSICGENENCPPGVGACFGRTRISVGKANKRLRYVDQVLQLVYKDGSKCPSKSGLSYKSVISFVCRPEAGPTNRPMLISLDKQTCTLFFSWHTPLACEQATECSV", "Label Class": "t"}
{"Binder": "domain 11^AB5 P1597H S1602H (receptor, See m5) MKSNEHDDCQVTNPSTGHLFDLSSLSGRAGFTAAYAKGWGVYMSICGENENCPPGVGACFGQTRISVGKANKRLRYVDQVLQLVYKDGSHCPSKHGLSYKSVISFVCRPEAGPTNRPMLISLDKQTCTLFFSWHTPLACEQATECSV", "Label Class": "t"}
{"Binder": "domain 11^AB3 Q1569R P1597K S1602H G1603K (receptor, See m5) MKSNEHDDCQVTNPSTGHLFDLSSLSGRAGFTAAYSKSGVVYMSICGENENCPPGVGACFGRTRISVGKANKRLRYVDQVLQLVYKDGSKCPSKHKLSYKSVISFVCRPEAGPTNRPMLISLDKQTCTLFFSWHTPLACEQATECSV", "Label Class": "t"}
{"Binder": "IGF2R domain 11^AB3 (receptor, His6-tagged soluble domain 11; also called domain 11^E1544K, K1545S, L1547V; 1542YSKSGV1547) MKSNEHDDCQVTNPSTGHLFDLSSLSGRAGFTAAYSKSGVVYMSICGENENCPPGVGACFGQTRISVGKANKRLRYVDQVLQLVYKDGSPCPSKSGLSYKSVISFVCRPEAGPTNRPMLISLDKQTCTLFFSWHTPLACEQATECSV", "Label Class": "f"}
{"Binder": "domain 11^AB5 Q1569R P1597H S1602H (receptor, See m5) MKSNEHDDCQVTNPSTGHLFDLSSLSGRAGFTAAYAKGWGVYMSICGENENCPPGVGACFGRTRISVGKANKRLRYVDQVLQLVYKDGSHCPSKHGLSYKSVISFVCRPEAGPTNRPMLISLDKQTCTLFFSWHTPLACEQATECSV", "Label Class": "t"}
{"Binder": "domain 11^AB5 Q1569R P1597H G1603K (receptor, See m5) MKSNEHDDCQVTNPSTGHLFDLSSLSGRAGFTAAYAKGWGVYMSICGENENCPPGVGACFGRTRISVGKANKRLRYVDQVLQLVYKDGSHCPSKSKLSYKSVISFVCRPEAGPTNRPMLISLDKQTCTLFFSWHTPLACEQATECSV", "Label Class": "t"}
